- Test system: male mice
- protocolDescription: Acute toxicity in vivo, median lethal dose
- measurementSetup: intraperitoneal, approximate LD50 (Litchfield and Wilcoxon)
- Procedure: The synthesized compounds were evaluated for their approximate LD50 in male mice. The mice were kept under a constant temperature and humidity in sterile cages with water and food. The stock solutions of the compounds used in this study were prepared immediately before usage and injected intraperitoneally (ip). The LD50 values (Tab. 3) were calculated using the method described by Litchfield and Wilcoxon. […]
Simple rule here: LD50ip less than 700 mg/kg is t, otherwise f.

molecule	qualitativeLabel
COC(=O)c1ccc(C2C3=C(Sc4[nH]c(=O)sc42)C(=O)c2ccccc2C3=O)cc1 (stereo not drawn) [Compound 4c]	t
O=C1C2=C(C(=O)c3ccccc31)C(c1ccc(Cl)cc1)c1sc(=O)[nH]c1S2 (stereo not drawn) [Compound 4g]	f
COc1ccc(C2C3=C(Sc4[nH]c(=O)sc42)C(=O)c2ccccc2C3=O)cc1OC (stereo not drawn) [Compound 4f]	t
COc1cc(C2C3=C(Sc4[nH]c(=O)sc42)C(=O)c2ccccc2C3=O)ccc1O (stereo not drawn) [Compound 4i]	t
COc1cc(C2C3=C(Sc4[nH]c(=O)sc42)C(=O)c2ccccc2C3=O)ccc1OCc1ccccc1 (stereo not drawn) [Compound 4e]	f
O=C1C2=C(C(=O)c3ccccc31)C(c1ccccc1O)c1sc(=O)[nH]c1S2 (stereo not drawn) [Compound 4a]	f
CC(C)(C)c1ccc(C2C3=C(Sc4[nH]c(=O)sc42)C(=O)c2ccccc2C3=O)cc1 (stereo not drawn) [Compound 4b]	t
O=C1C2=C(C(=O)c3ccccc31)C(c1ccc(F)cc1)c1sc(=O)[nH]c1S2 (stereo not drawn) [Compound 4h]	f

* * *

- Test system: Mycobacterium tuberculosis H37Rv strain (ATCC 27294)
- protocolDescription: Antimycobacterial pre-screening at 6.25 μg/mL (BACTEC 460 radiometric system)
- Type: cell-based
- measurementSetup: M. tuberculosis H37Rv, 6.25 μg/mL
Reported inhibition at 6.25 µg/mL by item:

compound	targetOrSystem	valueQualifier	inhibition at 6.25 µg/mL (%)
COc1cc(C2C3=C(Sc4[nH]c(=O)sc42)C(=O)c2ccccc2C3=O)ccc1OC(F)F (centres unmarked)	Mycobacterium tuberculosis H37Rv strain (ATCC 27294)	=	65
COC(=O)c1ccc(C2C3=C(Sc4[nH]c(=O)sc42)C(=O)c2ccccc2C3=O)cc1 (centres unmarked)	Mycobacterium tuberculosis H37Rv strain (ATCC 27294)	≥	90
CC(C)(C)c1ccc(C2C3=C(Sc4[nH]c(=O)sc42)C(=O)c2ccccc2C3=O)cc1 (centres unmarked)	Mycobacterium tuberculosis H37Rv strain (ATCC 27294)	=	61
COc1cc(C2C3=C(Sc4[nH]c(=O)sc42)C(=O)c2ccccc2C3=O)ccc1OCc1ccccc1 (centres unmarked)	Mycobacterium tuberculosis H37Rv strain (ATCC 27294)	=	15
COc1ccc(C2C3=C(Sc4[nH]c(=O)sc42)C(=O)c2ccccc2C3=O)cc1OC (centres unmarked)	Mycobacterium tuberculosis H37Rv strain (ATCC 27294)	=	0
O=C1C2=C(C(=O)c3ccccc31)C(c1ccc(Cl)cc1)c1sc(=O)[nH]c1S2 (centres unmarked)	Mycobacterium tuberculosis H37Rv strain (ATCC 27294)	≥	90
O=C1C2=C(C(=O)c3ccccc31)C(c1ccc(F)cc1)c1sc(=O)[nH]c1S2 (centres unmarked)	Mycobacterium tuberculosis H37Rv strain (ATCC 27294)	≥	90
O=C1C2=C(C(=O)c3ccccc31)C(c1ccccc1O)c1sc(=O)[nH]c1S2 (centres unmarked)	Mycobacterium tuberculosis H37Rv strain (ATCC 27294)	≥	90

Where do these numbers come from? They come from paper PMC3700073.
